Hello, the source for this data is patent US10981932B2, in case you need it.

Test system: OPM2
Assay: Anti-proliferative effect (CellTiter-Glo, 72 h), OPM2
Format: cell-based
Details: Homo sapiens, OPM-2, 72 h, OPM2 cells, median, read-out: IC50 antiproliferation assay OPM2 [M] (median)
quantity measured: IC50 (M)
Please reply with the bare figure in M and do not write the unit itself.

COCCn1nc2c(c1C1CC1)-c1cccc3c(CCCOc4cccc5ccccc45)c(C(=O)O)n(c13)CCCCOC2 (racemic) [Example 084] | 2.67e-05

In: Data request, read-out IC50, for Cn1nc(CN2CCOCC2)c2c1COCC=CCn1c(C(=O)O)c(CCCOc3cccc4ccccc34)c3cccc-2c31 (racemic) [Example 132]
Out: 1.17e-05
